Would you mind telling me the reported MIC of each entry?
test system: Klebsiella pneumoniae; assay: Antibacterial activity against human urinary Klebsiella pneumoniae UCL-1 harboring plasmid-encoded beta-lactamase OXA-48 by Etest method; assay type: functional; conditions: UCL-1, Urine
// note: answer is a bare numeric in µg/mL

Problem: Write down measured MIC (Klebsiella pneumoniae) for this compound. `C[C@@H](O)[C@H]1C(=O)N2C(C(=O)O)=C(S[C@@H]3CN[C@H](C(=O)Nc4cccc(C(=O)O)c4)C3)[C@H](C)[C@H]12`
Solution: 4

Problem: Write down measured MIC (Klebsiella pneumoniae) for this compound. CO/N=C(\C(=O)N[C@@H]1C(=O)N2C(C(=O)[O-])=C(C[N+]3(C)CCCC3)CS[C@H]12)c1csc(N)n1 [CEFEPIME]
Solution: 0.125

Problem: Write down measured MIC (Klebsiella pneumoniae) for this compound. `CCN1CCN(C(=O)N[C@@H](C(=O)N[C@@H]2C(=O)N3[C@@H]2SC(C)(C)[C@@H]3C(=O)O)c2ccccc2)C(=O)C1=O`
Solution: 256

Problem: Write down measured MIC (Klebsiella pneumoniae) for this compound. `CO/N=C(\C(=O)N[C@@H]1C(=O)N2C(C(=O)O)=C(COC(C)=O)CS[C@H]12)c1csc(N)n1`
Solution: 0.125

Problem: Write down measured MIC (Klebsiella pneumoniae) for this compound. `C[C@@H](O)[C@H]1C(=O)N2C(C(=O)O)=C(S[C@@H]3CN[C@H](C(=O)N(C)C)C3)[C@H](C)[C@H]12`
Solution: 0.5

Problem: Write down measured MIC (Klebsiella pneumoniae) for this compound. `C[C@H]1[C@H](NC(=O)/C(=N\OC(C)(C)C(=O)O)c2csc(N)n2)C(=O)N1S(=O)(=O)O`
Solution: 0.064

Problem: Write down measured MIC (Klebsiella pneumoniae) for this compound. `CC(C)(O/N=C(\C(=O)N[C@@H]1C(=O)N2C(C(=O)[O-])=C(C[n+]3ccccc3)CS[C@H]12)c1csc(N)n1)C(=O)O`
Solution: 1

Problem: Write down measured MIC (Klebsiella pneumoniae) for this compound. `CN(C)c1cc(NC(=O)CNC(C)(C)C)c(O)c2c1C[C@H]1C[C@H]3[C@H](N(C)C)C(O)=C(C(N)=O)C(=O)[C@@]3(O)C(O)=C1C2=O`
Solution: 2

Problem: Write down measured MIC (Klebsiella pneumoniae) for this compound. C[C@@H](O)[C@H]1C(=O)N2C(C(=O)O)=C(SCCNC=N)C[C@H]12 [IMIPENEM ANHYDROUS]
Solution: 0.75

Problem: Write down measured MIC (Klebsiella pneumoniae) for this compound. `CO[C@@]1(NC(=O)Cc2cccs2)C(=O)N2C(C(=O)O)=C(COC(N)=O)CS[C@@H]21`
Solution: 2

Problem: Write down measured MIC (Klebsiella pneumoniae) for this compound. `CC(=O)OCC1=C(C(=O)O)N2C(=O)[C@@H](NC(=O)Cc3cccs3)[C@H]2SC1`
Solution: 16

* * *

system: Escherichia coli; test: Antibacterial activity against Escherichia coli J53 harboring plasmid pA-1carrying beta-lactamase OXA-48 by Etest method; type: functional
measured.endpoint: log10 of MIC (log10 of the value in µg/mL)
Lab note - MIC converted to log10 from values in µg/mL.

Problem: Let me know recorded log10 of MIC for C[C@@H](O)[C@H]1C(=O)N2C(C(=O)O)=C(SCCNC=N)C[C@H]12 [IMIPENEM ANHYDROUS] , thanks.
Solution: 0.00

Problem: Let me know recorded log10 of MIC for `CC(C)(O/N=C(\C(=O)N[C@@H]1C(=O)N2C(C(=O)[O-])=C(C[n+]3ccccc3)CS[C@H]12)c1csc(N)n1)C(=O)O` , thanks.
Solution: -0.12

Problem: Let me know recorded log10 of MIC for `CO/N=C(\C(=O)N[C@@H]1C(=O)N2C(C(=O)O)=C(COC(C)=O)CS[C@H]12)c1csc(N)n1` , thanks.
Solution: -0.42

Problem: Let me know recorded log10 of MIC for `CN(C)c1cc(NC(=O)CNC(C)(C)C)c(O)c2c1C[C@H]1C[C@H]3[C@H](N(C)C)C(O)=C(C(N)=O)C(=O)[C@@]3(O)C(O)=C1C2=O` , thanks.
Solution: -0.30

Problem: Let me know recorded log10 of MIC for `C[C@H]1[C@H](NC(=O)/C(=N\OC(C)(C)C(=O)O)c2csc(N)n2)C(=O)N1S(=O)(=O)O` , thanks.
Solution: -1.19

Problem: Let me know recorded log10 of MIC for `CO[C@@]1(NC(=O)Cc2cccs2)C(=O)N2C(C(=O)O)=C(COC(N)=O)CS[C@@H]21` , thanks.
Solution: 0.30

Problem: Let me know recorded log10 of MIC for `CC(=O)OCC1=C(C(=O)O)N2C(=O)[C@@H](NC(=O)Cc3cccs3)[C@H]2SC1` , thanks.
Solution: 0.90

Problem: Let me know recorded log10 of MIC for `C[C@@H](O)[C@H]1C(=O)N2C(C(=O)O)=C(S[C@@H]3CN[C@H](C(=O)Nc4cccc(C(=O)O)c4)C3)[C@H](C)[C@H]12` , thanks.
Solution: 0.30

Problem: Let me know recorded log10 of MIC for `CCN1CCN(C(=O)N[C@@H](C(=O)N[C@@H]2C(=O)N3[C@@H]2SC(C)(C)[C@@H]3C(=O)O)c2ccccc2)C(=O)C1=O` , thanks.
Solution: 2.11

Problem: Let me know recorded log10 of MIC for CO/N=C(\C(=O)N[C@@H]1C(=O)N2C(C(=O)[O-])=C(C[N+]3(C)CCCC3)CS[C@H]12)c1csc(N)n1 [CEFEPIME] , thanks.
Solution: -0.90

Problem: Let me know recorded log10 of MIC for `C[C@@H](O)[C@H]1C(=O)N2C(C(=O)O)=C(S[C@@H]3CN[C@H](C(=O)N(C)C)C3)[C@H](C)[C@H]12` , thanks.
Solution: -0.30
